system: mPer2Luc MEF; assay: PER2::LUC luminescence relative to vehicle control (fold of vehicle); higher = higher PER2::LUC reporter signal; conditions: time after treatment 24 h; 10 µM
Over roughly 5,300 compounds, “PER2::LUC luminescence relative to vehicle control” has its median near 0.96; the highest 2% begin near 1.3. The list comes from a sample in which the highest values are over-represented; it also holds close analogues and randomly drawn compounds.
quantityName: PER2::LUC luminescence

Short answer for Nc1ccc(CCNc2ncnc3c2ncn3C2OC(CO)C(O)C2O)cc1 (stereo not given) : PER2::LUC luminescence was 0.951

Short answer for COc1cccc(NCC(O)Cn2c3ccc(Br)cc3c3cc(Br)ccc32)c1 (stereo in doubt) : PER2::LUC luminescence was 0.88

Short answer for OCC1OC(n2cnc3c(NC4CCCCC4)ncnc32)C(O)C1O (stereo not given) : PER2::LUC luminescence was 0.986

Short answer for Cc1ccccc1CNc1ncnc2c1ncn2[C@@H]1O[C@H](CO)[C@@H](O)[C@H]1O : PER2::LUC luminescence was 1.35

Short answer for OC[C@H]1O[C@@H](n2cnc3c(N[C@H]4CCC[C@@H]4O)ncnc32)[C@@H](O)C1O (stereo not given in full) : PER2::LUC luminescence was 1.25

----------
test system: mPer2Luc MEF; test: PER2::LUC luminescence relative to vehicle control (fold of vehicle); higher = higher PER2::LUC reporter signal; conditions: time after treatment 24 h; 10 µM
Over roughly 5,300 compounds, “PER2::LUC luminescence relative to vehicle control” has its median near 0.96; the highest 2% begin near 1.3. The list comes from a sample in which the highest values are over-represented; it also holds close analogues and randomly drawn compounds.
quantityName: PER2::LUC luminescence
Give the figure only, with no unit attached.

Hey, mPer2Luc MEF data for O=C(O)c1ccc(S(=O)(=O)N(Cl)Cl)cc1 : PER2::LUC luminescence came out at 0.921

Hey, mPer2Luc MEF data for FC(F)(F)c1ccccc1-n1ccnc1 : PER2::LUC luminescence came out at 0.975

Hey, mPer2Luc MEF data for O=c1cc(-c2ccc(O)cc2)oc2cc(O)cc(O)c12 : PER2::LUC luminescence came out at 0.595

Hey, mPer2Luc MEF data for O=C(O)/C=C/c1ccc(O)c(O)c1 : PER2::LUC luminescence came out at 0.886

Hey, mPer2Luc MEF data for C/C=C/C(=O)N1C(=O)OC[C@@H]1Cc1ccccc1 : PER2::LUC luminescence came out at 0.864

Hey, mPer2Luc MEF data for Nc1ncnc2c1ncn2[C@@H]1O[C@H](CO)C[C@@H]1O : PER2::LUC luminescence came out at 0.952

Hey, mPer2Luc MEF data for O=C1Nc2nc(-c3c(O)cccc3OCC3CC3)cc([C@@H]3CCCNC3)c2CO1 : PER2::LUC luminescence came out at 0.574

Hey, mPer2Luc MEF data for CC(=O)Oc1ccccc1C(=O)Nc1ncc([N+](=O)[O-])s1 : PER2::LUC luminescence came out at 0.826

Hey, mPer2Luc MEF data for C[C@H]1COC2(CCN(c3nc(=O)c4cc(C(F)(F)F)cc([N+](=O)[O-])c4s3)CC2)O1 (racemic) : PER2::LUC luminescence came out at 1.32

Hey, mPer2Luc MEF data for O=C(O)/C=C/C=C/c1ccc2c(c1)OCO2 : PER2::LUC luminescence came out at 1.07

Hey, mPer2Luc MEF data for FC(F)(F)c1ccc(CNc2ccc(Cc3c[nH]c4ncc(Cl)cc34)cn2)cc1 : PER2::LUC luminescence came out at 0.83

Hey, mPer2Luc MEF data for C/C1=C\CC(C)(C)/C=C/C(=O)/C(C)=C/CC1 : PER2::LUC luminescence came out at 1.08

Hey, mPer2Luc MEF data for COc1c(O)cc(O)c2c(=O)cc(-c3ccccc3)oc12 : PER2::LUC luminescence came out at 1.03

Hey, mPer2Luc MEF data for O=C(Nc1ncc([N+](=O)[O-])s1)c1ccccc1O : PER2::LUC luminescence came out at 1.45

Hey, mPer2Luc MEF data for O=C(c1ccc2c(c1)OCO2)N1CCCCC1 : PER2::LUC luminescence came out at 1

Hey, mPer2Luc MEF data for COc1ccc(C2=N[C@@H](c3ccc(Cl)cc3)[C@@H](c3ccc(Cl)cc3)N2C(=O)N2CCNC(=O)C2)c(OC(C)C)c1 (racemic) : PER2::LUC luminescence came out at 0.971

Hey, mPer2Luc MEF data for CCN(CC)CCOc1ccc(Cc2ccccc2)cc1 : PER2::LUC luminescence came out at 0.811

Hey, mPer2Luc MEF data for O=c1[nH]c2ccccc2c2ccccc12 : PER2::LUC luminescence came out at 1.19

Hey, mPer2Luc MEF data for CC(=O)CC(=O)Nc1ccc(Cl)c(C(F)(F)F)c1 : PER2::LUC luminescence came out at 1.35

Hey, mPer2Luc MEF data for CC(C)c1noc(C2CCN(c3ncnc(Nc4ccc(S(C)(=O)=O)cc4F)c3[N+](=O)[O-])CC2)n1 : PER2::LUC luminescence came out at 0.972

Hey, mPer2Luc MEF data for CCCCCCCCCCC1=C(C)C(=O)C(OC)=C(OC)C1=O : PER2::LUC luminescence came out at 1.02

Hey, mPer2Luc MEF data for O=C(/C=C/c1ccc(O)c(O)c1)OCCc1ccccc1 : PER2::LUC luminescence came out at 0.173

Hey, mPer2Luc MEF data for c1ccc(-c2ccc(C(c3ccccc3)n3ccnc3)cc2)cc1 (stereo not drawn) : PER2::LUC luminescence came out at 1.45

Hey, mPer2Luc MEF data for Cc1cc(Nc2ccc(NC(=O)c3ccc(Nc4ccnc5ccccc45)cc3)cc2)nc(N)n1 : PER2::LUC luminescence came out at 0.945

Hey, mPer2Luc MEF data for O=C(/C=C/C=C/c1ccc2c(c1)OCO2)N1CCCCC1 : PER2::LUC luminescence came out at 1.5

Hey, mPer2Luc MEF data for COc1ccccc1-c1nc(-c2ccccn2)no1 : PER2::LUC luminescence came out at 0.948

Hey, mPer2Luc MEF data for COc1cc(O)c(C(=O)/C=C/c2ccc(O)c(OC)c2)c(OC)c1 : PER2::LUC luminescence came out at 0.871

Hey, mPer2Luc MEF data for CC1(C)CCC[C@](C)([C@H]2CC[C@]3(C)[C@@H]2[C@H](O)C[C@@H]2[C@@]4(C)CC[C@H](O)C(C)(C)[C@@H]4CC[C@]23C)O1 : PER2::LUC luminescence came out at 1.02

Hey, mPer2Luc MEF data for NC(=O)[C@@H]1CC[C@H](c2ccc(OCc3ccccc3F)cc2)N1 : PER2::LUC luminescence came out at 0.937

Hey, mPer2Luc MEF data for OCc1cc2c(cn1)[nH]c1ccccc12 : PER2::LUC luminescence came out at 0.851

Hey, mPer2Luc MEF data for O=C(/C=C/c1ccc(O)c(O)c1)O[C@@H]1C[C@](O)(C(=O)O)C[C@@H](O)[C@H]1O : PER2::LUC luminescence came out at 1.8

Hey, mPer2Luc MEF data for O=c1cc(-c2ccc(O)c(O)c2)oc2cc(O)cc(O)c12 : PER2::LUC luminescence came out at 1.01

Hey, mPer2Luc MEF data for NS(=O)(=O)c1ccc(C(=O)O)cc1 : PER2::LUC luminescence came out at 0.746

Hey, mPer2Luc MEF data for COc1cc(OC)c2c(=O)cc(-c3ccccc3)oc2c1 : PER2::LUC luminescence came out at 1.01

Hey, mPer2Luc MEF data for C[C@@H](O)[C@H]1C(=O)N2C(C(=O)O)=C(SC3CN(C4=NCCS4)C3)[C@H](C)[C@H]12 : PER2::LUC luminescence came out at 1.03

Hey, mPer2Luc MEF data for O=[N+]([O-])c1cc(C(F)(F)F)cc([N+](=O)[O-])c1NNC(=S)Nc1ccc(F)cc1 : PER2::LUC luminescence came out at 0.67

Hey, mPer2Luc MEF data for NC1CCN(O)C1=O (single isomer, unassigned; (-)) : PER2::LUC luminescence came out at 1.08

Hey, mPer2Luc MEF data for CC(=O)Nc1ccc(O)cc1 : PER2::LUC luminescence came out at 0.846

Hey, mPer2Luc MEF data for CC(C)C1=CC2=CC[C@@H]3[C@](C)(CCC[C@@]3(C)C(=O)O)[C@H]2CC1 : PER2::LUC luminescence came out at 1.34

Hey, mPer2Luc MEF data for CNC(=O)c1cc(Oc2ccc(NC(=O)c3cccc(C(F)(F)F)c3)cc2)ccn1 : PER2::LUC luminescence came out at 1.15

Hey, mPer2Luc MEF data for Nc1nc(=O)c2c([nH]1)NCC(CNc1ccc(C(=O)N[C@@H](CCC(=O)O)C(=O)O)cc1)=N2 : PER2::LUC luminescence came out at 1.06

Hey, mPer2Luc MEF data for CCOc1ccc(-n2c(C(C)N(Cc3cccnc3)C(=O)Cc3ccc(OC(F)(F)F)cc3)nc3ncccc3c2=O)cc1 (stereo not drawn) : PER2::LUC luminescence came out at 0.97

Hey, mPer2Luc MEF data for CC(C)CCC[C@@H](C)[C@H]1CC[C@H]2[C@@H]3CC=C4CC(=O)CC[C@]4(C)[C@H]3CC[C@]12C : PER2::LUC luminescence came out at 1.42
